Molecular target: Trypsin (Homo sapiens, UniProt P07477+P07478+P35030)
Experiment: Stability of compound assessed as trypsin (unknown origin) mediated compound hydrolysis at 10 uM incubated for 1 hr by MALDI-MS analysis
Type: ADME, protein assay
METRIC NAME: Stabilty

INSERT INTO measurements (cpd_smiles, reported_result) VALUES
  ('CN(C(=O)[C@H](CCCCN)NC(=O)[C@@H]1CCCN1C(=O)Cc1cccc2ccccc12)[C@@H](CCCCN)C(N)=O', 'Stable'),
  ('C[C@@H](C(N)=O)N(C)C(=O)[C@H](CCCCN)NC(=O)[C@@H]1CCCN1C(=O)Cc1cccc2ccccc12', 'Stable'),
  ('CN(C(=O)[C@H](CCCCN)NC(=O)[C@@H]1CCCN1C(=O)Cc1cccc2ccccc12)[C@@H](CCCNC(=N)N)C(N)=O', 'Stable');
